system: SNB-78; assay: NCI tumour cell line growth inhibition, 48 h
Structures can show the parent of a compound that is named as a salt. Calls of active or inactive are those of the source. Rule as the data show it: active = GI50 up to about 1.1 µM and inactive = higher.
Lab note: assign the record to one of y = active, n = inactive

Example results:
Request: For this compound, state the assay outcome: O=C(N/C(=C\c1ccccc1[N+](=O)[O-])c1nc2ccccc2[nH]1)c1ccccc1
Result: n

Request: For this compound, state the assay outcome: CC[C@]1(O)C[C@H]2CN(CCc3c([nH]c4ccccc34)[C@@](C(=O)OC)(c3cc4c(cc3OC)N(C=O)[C@H]3[C@@](O)(C(=O)OC)[C@H](OC(C)=O)[C@]5(CC)C=CCN6CC[C@]43[C@@H]65)C2)C1 [VINCRISTINE SULFATE]
Result: y

Request: For this compound, state the assay outcome: O=C1C=CC(CC(=O)c2ccc3ccccc3c2)O1 (centres undefined)
Result: n

More entries:
Request: For this compound, state the assay outcome: COC(=O)C1C(=O)CC2CCCCC21 (centres undefined)
Result: n

====

test system: KM-20L2; assay: NCI tumour cell line growth inhibition, 48 h
The source made the active and inactive calls. Cut-off read from the data, not from the text of the source: active = GI50 up to about 1.1 µM and inactive = higher.
reportedProperty: GI50

Request: For the compound O=C1c2ccc3c4ccccc4n(-c4ccccc4)c3c2C(=O)N1c1ccc(Cl)cc1 , what GI50 is on record?
Result: > 100 µM (inactive)

Request: For the compound NCCOc1ccc(/C(=C(/Cl)c2ccccc2)c2ccccc2)cc1 , what GI50 is on record?
Result: 6.62 µM (inactive)

Request: For the compound CC(=O)Nc1ccc2c(c1)C(=O)c1ccccc1-2 , what GI50 is on record?
Result: > 100 µM (inactive)

Request: For the compound Cc1ccc(C2=C(c3ccccc3)C(O)(c3ccccc3)C(c3ccccc3)=C2c2ccc(C)cc2)cc1 , what GI50 is on record?
Result: > 100 µM (inactive)

Request: For the compound O=C1Cc2ccccc2CCc2ccsc21 , what GI50 is on record?
Result: > 100 µM (inactive)

More entries:
Request: For the compound N=c1nc(N)c2cc3c(N)nc(=N)c3cc12 , what GI50 is on record?
Result: > 100 µM (inactive)

Request: For the compound Cc1ccccc1NC(=O)C1C(=O)N(c2ccccc2C)C(=O)/C1=N\N (stereo not given) , what GI50 is on record?
Result: > 100 µM (inactive)

Request: For the compound CC1(C)C(c2ccccc2)C12CCC1(C2=O)C(c2ccccc2)C1(C)C (stereo not given) , what GI50 is on record?
Result: 20.3 µM (inactive)

Request: For the compound O=C(CCn1[nH]c(=O)c(Cl)c(Cl)c1=O)NOCCCc1ccccc1 , what GI50 is on record?
Result: > 100 µM (inactive)

Request: For the compound CC(=O)OC1CC[C@@]2(C)C(CC[C@]3(C)C2CC=C2[C@@H]4CC(C)(C)CCC4(C)CCC23C)[C@@]1(C)C(=O)O (stereo not given in full) , what GI50 is on record?
Result: 13.9 µM (inactive)

====

tested on: KM12; assay: NCI tumour cell line growth inhibition, 48 h
Active and inactive are the calls of the source. No stated cut-off is given here; in the data, active = GI50 up to about 1.1 µM and inactive = higher.
Lab note: assign the record to one of YES = active, NO = inactive

Example results:
Request: For this molecule, state the assay outcome: O=S(=O)(CCn1c(Sc2ccccc2)c(Sc2ccccc2)c2ccccc21)c1ccccc1
Result: NO

Request: For this molecule, state the assay outcome: COc1ccc(C(N)=O)cc1/N=N/N(C)C
Result: NO

Request: For this molecule, state the assay outcome: C=CCOCCCCC(C(C)=O)C(=O)OC (centres undefined)
Result: NO

Request: For this molecule, state the assay outcome: C[n+]1c(-c2ccc(/C=N\Nc3ccnc(N/N=C/c4ccc(-c5cn6ccsc6[n+]5C)cc4)n3)cc2)cn2ccsc21
Result: NO

Now for a further molecule.
Request: For this molecule, state the assay outcome: O=[N+]([O-])c1c(/C=N/c2ccccc2)oc(-c2ccc3c(c2)OCO3)c1-c1ccc2c(c1)OCO2
Result: NO

====

tested on: MDA-MB-435; assay: NCI tumour cell line growth inhibition, 48 h
Activity calls are given as the source filed them. Cut-off read from the data, not from the text of the source: active = GI50 up to about 1.1 µM and inactive = higher.
reportedProperty: GI50

Request: For the compound O=P1(Oc2ccccc2)N(CCCl)CCN1c1ccccc1 (stereo not drawn) , what GI50 is on record?
Result: > 100 µM (inactive)

Request: For the compound CC(=O)OC1CC[C@@]2(C)C(CC[C@]3(C)C2CC=C2[C@@H]4CC(C)(C)CCC4(C)CCC23C)[C@@]1(C)C(=O)O (stereo partly drawn) , what GI50 is on record?
Result: 15.2 µM (inactive)

Request: For the compound CC1(C)CCC[C@](C)([C@H]2CC[C@]3(C)[C@@H]2[C@H](O)C[C@@H]2[C@@]4(C)CC[C@H](O)C(C)(C)[C@@H]4[C@H](O)C[C@]23C)O1 , what GI50 is on record?
Result: 12.2 µM (inactive)

Request: For the compound O=[N+]([O-])c1ccc2c(c1)c1nn2CCCCOc2nn(c3ccc([N+](=O)[O-])cc23)CCCCO1 , what GI50 is on record?
Result: > 100 µM (inactive)

Request: For the compound C=C(C)C1=CCC[C@]2(C1)N=C(OC)[C@@H](C(C)C)N=C2OC , what GI50 is on record?
Result: 40.1 µM (inactive)

More entries:
Request: For the compound CCNc1nnc(-c2ccccc2Nc2ccccc2-c2nnc(NCC)s2)s1 , what GI50 is on record?
Result: 17.4 µM (inactive)

Request: For the compound O=C(Nc1cccc(NC(=O)C(=O)C2CCC3=C(Sc4ccccc4N3)C2=O)n1)C(=O)C1CCC2=C(Sc3ccccc3N2)C1=O (stereo not drawn) , what GI50 is on record?
Result: 85.9 µM (inactive)

Request: For the compound CN(C)P(=O)(Oc1occc1C(O)Cc1ccccc1)N(C)C (stereo not drawn) , what GI50 is on record?
Result: > 100 µM (inactive)

====

tested on: ACHN; test: NCI tumour cell line growth inhibition, 48 h
Activity calls are given as the source filed them. Rule as the data show it: active = GI50 up to about 1.1 µM and inactive = higher.
reportedProperty: GI50

Request: Any idea what GI50 came out for Cn1c(=O)c2c(nc(NCCNc3nc4c(c(=O)n(C)c(=O)n4C)n3C)n2C)n(C)c1=O on ACHN?
Result: > 100 µM (inactive)

Request: Any idea what GI50 came out for O=C(NC(Cc1c[nH]c2ccccc12)C(=O)O)/C(=C/c1ccccc1O)NC(=O)c1ccccc1 (centres undefined) on ACHN?
Result: 19.2 µM (inactive)

Request: Any idea what GI50 came out for CN(C)CCCNC(=O)c1cc(NC(=O)c2cc(NC(=O)c3cc(NC(=O)CCCn4ccc(CO)c4CO)cn3C)cn2C)cn1C on ACHN?
Result: 15.8 µM (inactive)

Request: Any idea what GI50 came out for O=c1c2cc(O)c(O)cc2oc2cc(O)c(C3OC(CO)C(O)C(O)C3O)c(O)c12 (centres undefined) on ACHN?
Result: > 100 µM (inactive)

Request: Any idea what GI50 came out for O=C1c2cccc3cc([N+](=O)[O-])cc(c23)C(=O)N1NC1=NCCN1 on ACHN?
Result: > 100 µM (inactive)

Request: Any idea what GI50 came out for O=c1[nH]cnc(NC2C=C(CO)C(O)C2O)c1[N+](=O)[O-] (centres undefined) on ACHN?
Result: > 100 µM (inactive)

More entries:
Request: Any idea what GI50 came out for Clc1ccccc1CN1COc2c(ccc3cccnc23)C1 on ACHN?
Result: 3.72 µM (inactive)

Request: Any idea what GI50 came out for Cc1c(C)c2c(c(N)c1C#N)C(=O)N(NC(=O)c1ccccc1)C2=O on ACHN?
Result: > 100 µM (inactive)

Request: Any idea what GI50 came out for O=C(O)COc1ccc(C(=O)/C(SS/C(C(=O)c2ccc(OCC(=O)O)c(Cl)c2Cl)=C2\C=C(c3ccc(Cl)cc3)SS2)=C2/C=C(c3ccc(Cl)cc3)SS2)c(Cl)c1Cl on ACHN?
Result: 8.39 µM (inactive)

Request: Any idea what GI50 came out for COc1ccc(CSCc2cc(OC)c(OC)c(OC)c2)cc1 on ACHN?
Result: > 100 µM (inactive)

Request: Any idea what GI50 came out for CCOc1ccc(N/C(Cl)=C(Cl)\C(=C(\Nc2ccc(OCC)cc2)n2nnc3ccccc32)[N+](=O)[O-])cc1 on ACHN?
Result: 4.03 µM (inactive)

====

tested on: OVCAR-8; assay: NCI tumour cell line growth inhibition, 48 h
The source made the active and inactive calls. No stated cut-off is given here; in the data, active = GI50 up to about 1.1 µM and inactive = higher.
Below: a set of entries, each annotated with reported GI50.

Below: 5 compounds and their reported GI50.
Request: For the compound Nc1nc2[nH]cnc2c(=S)[nH]1 , what GI50 is on record?
Result: 0.687 µM (active)

Request: For the compound CCCCCCCCCCCCCCCCCCOCC(O)COP(=O)(O)OCC1OC(n2ccc(N)nc2=O)C(O)C1O (stereo not given) , what GI50 is on record?
Result: 6.31 µM (inactive)

Request: For the compound O=S(=O)(CCn1c(Sc2ccccc2)c(Sc2ccccc2)c2ccccc21)c1ccccc1 , what GI50 is on record?
Result: > 100 µM (inactive)

Request: For the compound O=[N+]([O-])c1ccccc1[S+]([O-])c1ccccc1 (stereo not given) , what GI50 is on record?
Result: > 100 µM (inactive)

Request: For the compound Cn1cc(NC(=O)c2cc(NC(=O)CNC(=N)N)cn2C)cc1C(=O)NCCC(=N)N [NETROPSIN CHLORIDE] , what GI50 is on record?
Result: > 100 µM (inactive)

More entries:
Request: For the compound O=C(Nc1nc2ccc([N+](=O)[O-])cc2s1)C(=O)C(C(=O)c1ccncc1)C1OC(=O)c2ccccc21 (stereo not given) , what GI50 is on record?
Result: > 100 µM (inactive)

Request: For the compound COc1cc2cc(OC(C)=O)c3cc4c(cc3c2c(OC)c1OC)OCO4 , what GI50 is on record?
Result: > 100 µM (inactive)

Request: For the compound COc1ccccc1/C=C1\CCC(Cc2ccccc2)(CN(C)C)C1=O (stereo not given) , what GI50 is on record?
Result: 2.33 µM (inactive)

Request: For the compound O=C(O)c1cc2ccccc2c(/N=N/c2ccc(S(=O)(=O)O)cc2)c1O , what GI50 is on record?
Result: > 100 µM (inactive)

Request: For the compound CN(C)CCOC1(CC2CCCCC2)CCC(C(C)(C)C)CC1 (stereo not given) , what GI50 is on record?
Result: 6.82 µM (inactive)
